For each of the binders below, state its Octet response.
measurementTarget: IA peptide (Octet assay of PS557 variants)
assayOverview: Octet (BLI), peptide on sensor, response after 200 s association
Your answer should be a number followed by the unit of measure.

Worked set:
binder | Octet response
PS830 (designed binder) MPTAASATESAIEDTPAPARPEVDGRTKPKRQPRYHVVLWDDDDHTYQYVVVMLQSLFGHPRKRGYRLAKEMDTLGRVIVLTTTREHAELKRDQIHAFGYDRLLARSKGSMKASIEAEE | 6.51 nm
PS801/PS814 (designed binder) MPTAASATESAIEDTPAPARPEVDGRTKPKRQPRYHVVLWNDDDHTYQYVVVMLQSLFGHPPKRGYRLAKEVDTQGRVIVLTTTREHAELKRDQIHAFGYDRLLARSKGSMKASIEAEE | 9.02 nm
PS847 (designed binder) MPTAASATESAIEDTPAPARPEVDGRTKPKRQPRYHVVLWDDDDHTYQYVVVMLRSLFGHPPERGYRLAKEMDTQGRVIVLTTTREHAELKRDQIHAFGYDRLLARSKGSMKASIEAEE | 7.77 nm
PS809 (designed binder) MPTAASATESAIEDTPAPARPEVDGRTKPKRQPRYHVVLWNDDDHTYQYVVVMLQSLFGHPPERGYRLAKEMDTQGRVIVLTTTREHAELKRDQIHAFGYDRLLARSKGSMKASIEAEE | 8.52 nm

Now take the following binder into account.
What does the data say about its Octet response? Entry: PS798 (designed binder) MPTAASATESAIEDTPAPARPEVDGRTKPKRQPRYHVVLWNDDDHTYQYVVVMLQSLFGHPPERGYRLAKEMDTLGRVIVLTTTREHAELKRDQIHAFGYDRLLARSKGSMKASIEAEE 12.7 nm
